- assayedSystem: CD16a-V158 (FcgRIIIa-V158) (Homo sapiens, UniProt P08637, F176V)
- Sequence (P08637 17-208 F176V limits assumed): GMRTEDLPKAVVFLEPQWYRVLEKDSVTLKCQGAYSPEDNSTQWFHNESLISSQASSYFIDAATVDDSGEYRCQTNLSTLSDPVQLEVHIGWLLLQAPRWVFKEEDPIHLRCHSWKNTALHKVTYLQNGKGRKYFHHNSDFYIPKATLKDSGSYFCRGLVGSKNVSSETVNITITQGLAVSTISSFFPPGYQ
- measurementDescription: SPR, antibody binding to anti-his Fab captured FcgR-his (% Rmax)
- conditionSummary: 1 μM antibody
Record form. Attribute: % Rmax hCD16a-V158. Fill in for each entry.
State the answer as a number, implicitly in %.

Query block: Give the reported value of % Rmax hCD16a-V158 for this record: mAb6-IgG2.3 (protein, left off: another chain or arm of the molecule) constant: ASTKGPSVFPLAPCSRSTSESTAALGCLVKDYFPEPVTVSWNSGALTSGVHTFPAVLQSSGLYSLSSVVTVPSSNFGTQTYTCNVDHKPSNTKVDKTVERKSCVECPPCPAPPVAGPSVFLFPPKPKDTLMISRTPEVTCVVVDVSHEDPEVQFNWYVDGVEVHNAKTKPREEQFNSTFRVVSVLTVVHQDWLNGKEYKCKVSNKGLPAPIEKTISKTKGQPREPQVYTLPPSREEMTKNQVSLTCLVKGFYPSDIAVEWESNGQPENNYKTTPPMLDSDGSFFLYSKLTVDKSRWQQGNVFSCSVMHEALHNHYTQKSLSLSPGK
Result block: 1

Query block: Determine from records and report % Rmax hCD16a-V158 for mAb7-IgG2.5G1-AY-V27 (protein, left off: another chain or arm of the molecule) constant: ASTKGPSVFPLAPSSRSTSESTAALGCLVKDYFPEPVTVSWNSGALTSGVHTFPAVLQSSGLYSLSSVVTVPSSNFGTQTYTCNVDHKPSNTKVDKTVERKCCVECPPCPAPELLGGPSVFLFPPKPKDTLMISRTPEVTCVVVDVEHEDPEVKFNWYVDGVEVHNAKTKPREEQYNSTYRVVSVLTVLHQDWLNGKEYKCKVSNKALPAPIEKTISKAKGQPREPQVYTLPPSREEMTKNQVSLTCLVKGFYPSDIAVEWESNGQPENNYKTTPPVLDSDGSFFLYSKLTVDKSRWQQGNVFSCSVMHEALHNHYTQKSLSLSPGK
Result block: 32

Query block: Please supply the value of reported % Rmax hCD16a-V158 for the item mAb6-IgG2.5 (protein, left off: another chain or arm of the molecule) constant: ASTKGPSVFPLAPSSRSTSESTAALGCLVKDYFPEPVTVSWNSGALTSGVHTFPAVLQSSGLYSLSSVVTVPSSNFGTQTYTCNVDHKPSNTKVDKTVERKCCVECPPCPAPPVAGPSVFLFPPKPKDTLMISRTPEVTCVVVDVSHEDPEVQFNWYVDGVEVHNAKTKPREEQFNSTFRVVSVLTVVHQDWLNGKEYKCKVSNKGLPAPIEKTISKTKGQPREPQVYTLPPSREEMTKNQVSLTCLVKGFYPSDIAVEWESNGQPENNYKTTPPMLDSDGSFFLYSKLTVDKSRWQQGNVFSCSVMHEALHNHYTQKSLSLSPGK
Result block: 2

Query block: Return value of % Rmax hCD16a-V158 for input mAb7-IgG2.5 (protein, left off: another chain or arm of the molecule) constant: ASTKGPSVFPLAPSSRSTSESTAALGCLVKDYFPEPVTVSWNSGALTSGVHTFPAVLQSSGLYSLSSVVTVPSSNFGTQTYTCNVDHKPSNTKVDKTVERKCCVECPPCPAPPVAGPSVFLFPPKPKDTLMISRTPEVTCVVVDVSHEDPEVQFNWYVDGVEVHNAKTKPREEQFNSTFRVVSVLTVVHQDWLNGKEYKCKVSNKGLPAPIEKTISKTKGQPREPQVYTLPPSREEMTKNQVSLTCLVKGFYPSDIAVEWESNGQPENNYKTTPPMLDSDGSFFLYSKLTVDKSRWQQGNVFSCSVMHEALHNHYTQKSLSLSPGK , no commentary.
Result block: 2

Query block: Report measured % Rmax hCD16a-V158; entry is mAb5-IgG2.3 (protein, left off: another chain or arm of the molecule) constant: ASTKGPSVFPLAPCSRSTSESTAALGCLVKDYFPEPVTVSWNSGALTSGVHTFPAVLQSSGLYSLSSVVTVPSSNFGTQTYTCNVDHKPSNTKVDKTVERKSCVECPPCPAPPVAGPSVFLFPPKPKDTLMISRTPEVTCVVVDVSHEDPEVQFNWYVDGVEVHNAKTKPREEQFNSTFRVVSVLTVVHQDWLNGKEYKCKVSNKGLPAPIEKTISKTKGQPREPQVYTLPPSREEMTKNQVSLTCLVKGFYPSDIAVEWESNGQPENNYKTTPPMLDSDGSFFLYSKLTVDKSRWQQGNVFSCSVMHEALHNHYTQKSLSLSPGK
Result block: 3

Query block: Dear colleague, please send me the reported % Rmax hCD16a-V158 for mAb12-IgG2.5 (protein, left off: another chain or arm of the molecule) constant: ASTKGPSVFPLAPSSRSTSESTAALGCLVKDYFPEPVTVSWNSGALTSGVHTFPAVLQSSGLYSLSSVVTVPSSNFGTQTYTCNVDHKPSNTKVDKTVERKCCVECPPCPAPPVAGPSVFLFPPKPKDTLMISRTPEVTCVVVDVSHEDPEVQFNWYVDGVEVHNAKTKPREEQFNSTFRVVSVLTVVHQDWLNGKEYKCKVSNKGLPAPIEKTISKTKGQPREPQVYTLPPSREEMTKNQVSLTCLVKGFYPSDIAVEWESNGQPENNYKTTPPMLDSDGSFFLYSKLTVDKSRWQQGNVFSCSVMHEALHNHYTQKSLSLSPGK when you can.
Result block: 1

Query block: Report % Rmax hCD16a-V158, nothing else, for this molecule: mAb11-IgG2.3 (protein, left off: another chain or arm of the molecule) constant: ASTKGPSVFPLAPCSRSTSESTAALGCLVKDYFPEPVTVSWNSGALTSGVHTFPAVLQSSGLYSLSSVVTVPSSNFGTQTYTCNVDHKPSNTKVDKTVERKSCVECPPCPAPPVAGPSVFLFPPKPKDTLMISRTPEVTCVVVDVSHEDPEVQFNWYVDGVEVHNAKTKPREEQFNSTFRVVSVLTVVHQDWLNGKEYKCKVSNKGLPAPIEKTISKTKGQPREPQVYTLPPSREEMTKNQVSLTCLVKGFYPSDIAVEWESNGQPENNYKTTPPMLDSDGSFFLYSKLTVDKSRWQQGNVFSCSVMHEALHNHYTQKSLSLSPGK
Result block: 1
